Reported MFI at 25 nM values follow for various binders
biological target: T1, human PD-1 expressed on cells (human, UniProt Q15116 25-288); test: flow cytometry, activated PBMC donor two
T1 construct: whole, on cells
T1 sequence (Q15116 25-288): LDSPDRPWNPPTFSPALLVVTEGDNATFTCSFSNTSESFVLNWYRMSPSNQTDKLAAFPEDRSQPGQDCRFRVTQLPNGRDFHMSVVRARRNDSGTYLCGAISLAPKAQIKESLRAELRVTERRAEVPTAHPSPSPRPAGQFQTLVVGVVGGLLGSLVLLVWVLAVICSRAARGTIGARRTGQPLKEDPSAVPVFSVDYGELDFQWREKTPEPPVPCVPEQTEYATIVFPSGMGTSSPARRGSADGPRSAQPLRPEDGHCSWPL
Write the value in MFI as a bare number.

Sample records with MFI at 25 nM:
binder	unit	MFI at 25 nM
31B1 (antibody, V domains shown, also called 780_38; 33B1 and 31B2 (apparent misprints)) VH: QVQLVQSGAEVKKPGSSVKVSCKASGGTFSSSVISWVRQAPGQGLEWMGGIIPIFGTANYAQKFQGRVTITADESTSTAYMELSSLRSEDTAVYYCAREGLGCSGGSCYSGYYYGMDVWGQGTTVTVSS VL: DIVMTQSPLSLPVTPGEPASISCRSSQSLLHSNGYNYLDWYLQKPGQSPQLLIYEASSLHSGVPDRFSGSGSGTDFTLKISRVEAEDVGVYYCMQGTHWPYTFGQGTKVEIK	MFI	17.8
38A6 (antibody, V domains shown, also called 780_46) VH: EVQLLESGGGLVQPGGSLRLSCAASGFTFSSYWMSWVRQAPGKGLEWVSAISGSGGSTYYADSVKGRFTISRDNSKNTLYLQMNSLRAEDTAVYYCASSPLQWVDVWGQGTTVTVSS VL: DIQMTQSPSSLSASVGDRVTITCRASQDISRWLGWYQQKPGKAPKLLIYAASTLQSGVPSRFSGSGSGTDFTLTISSLQPEDFATYYCQQANSFPFTFGPGTKLEIK	MFI	15.9
33C4 (antibody, V domains shown, also called 780_39) VH: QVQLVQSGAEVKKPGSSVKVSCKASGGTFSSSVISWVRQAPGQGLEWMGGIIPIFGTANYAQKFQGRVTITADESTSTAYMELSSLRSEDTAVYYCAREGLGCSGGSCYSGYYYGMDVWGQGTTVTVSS VL: DIVMTQSPLSLPVTPGEPASISCRSSQSLLHSNGYNYLDWYLQKPGQSPQLLIYEASSLHTGVPDRFSGSGSGTDFTLKISRVEAEDVGVYYCMQGSHWPYTFGQGTKLEIK	MFI	18.7

// 38B2 (antibody, V domains shown, 24H9 derivative, IgG; also called 780_54; hPD1 Ab (38B2)) VH: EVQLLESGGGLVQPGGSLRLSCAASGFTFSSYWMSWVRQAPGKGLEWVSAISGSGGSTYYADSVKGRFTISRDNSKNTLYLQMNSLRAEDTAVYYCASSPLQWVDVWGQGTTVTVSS VL: DIQMTQSPSSLSASVGDRVTITCRASESISSWLAWYQQKPGKAPKLLIYDASSLESGVPSRFSGSGSGTDFTLTISSLQPEDFATYYCQQGDSFPFTFGQGTKLEIK : MFI at 25 nM value = 16.7
